- System: Mycolicibacterium phlei
- assay-details: Antibacterial activity against Mycobacterium phlei
- Assay type: functional
observation-type: MIC (µg/mL)
Give the quantity in µg/mL, number only.

Entry CCCCc1ccc(NC(=O)C2=CCN[C@@H]([C@H](O[C@@H]3O[C@H](CN)[C@@H](O)[C@H]3O)[C@H]3O[C@@H](n4ccc(=O)[nH]c4=O)[C@H](O)[C@@H]3O)C(=O)N2C)cc1 has what MIC? 12.5

Any idea what its MIC is? The molecule is CCCCCCCCCCCCNC(=O)C1=CCN(C)[C@@H]([C@H](O[C@@H]2O[C@H](CN)[C@@H](O)[C@H]2O)[C@H]2O[C@@H](n3ccc(=O)[nH]c3=O)[C@H](O)[C@@H]2O)C(=O)N1C 0.39

I am curious: what MIC value has been reported for CCCCCCCCCCCCCCCCCCCCNC(=O)C1=CCN(C)[C@@H]([C@H](O[C@@H]2O[C@H](CN)[C@@H](O)[C@H]2O)[C@H]2O[C@@H](n3ccc(=O)[nH]c3=O)[C@H](O)[C@@H]2O)C(=O)N1C ? 1.56

Can you look up the measured MIC of CCCCCCCCCCCCCCc1ccc(NC(=O)C2=CCN(C)[C@@H]([C@H](O[C@@H]3O[C@H](CN)[C@@H](O)[C@H]3O)[C@H]3O[C@@H](n4ccc(=O)[nH]c4=O)[C@H](O)[C@@H]3O)C(=O)N2C)cc1 for me? 3.13
